Target: Beta Secretase enzyme (BACE) (Homo sapiens, UniProt P56817)
Sequence (P56817 46-501): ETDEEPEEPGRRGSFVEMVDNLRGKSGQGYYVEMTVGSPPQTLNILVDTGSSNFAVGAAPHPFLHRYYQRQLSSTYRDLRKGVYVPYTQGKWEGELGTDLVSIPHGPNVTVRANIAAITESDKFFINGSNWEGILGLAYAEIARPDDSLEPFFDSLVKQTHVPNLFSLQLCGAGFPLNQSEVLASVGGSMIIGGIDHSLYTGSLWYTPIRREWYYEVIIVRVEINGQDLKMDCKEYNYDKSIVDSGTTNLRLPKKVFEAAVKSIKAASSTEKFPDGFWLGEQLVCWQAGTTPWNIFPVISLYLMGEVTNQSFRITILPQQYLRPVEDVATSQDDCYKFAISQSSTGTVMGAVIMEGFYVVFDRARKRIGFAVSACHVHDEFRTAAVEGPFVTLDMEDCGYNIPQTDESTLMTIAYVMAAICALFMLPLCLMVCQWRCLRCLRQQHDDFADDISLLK
Assay: In vitro enzymatic BACE FRET (fluorescence resonance energy transfer) assay;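 further: fluorescence read after 1 h with 50 nM quenched peptide substrate spanning the BACE cleavage site, in pH 4.2 acetate buffer containing 10% DMSO and nonionic detergent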
Type: biochemical
Settings: BACE enzyme assay IC50; read-out: BACE1 FRET assay
Would you kindly list pIC50 for each of these compounds?
Convention used: pIC50 is expressed as -log10 of the molar concentration.

**Query** Name the recorded pIC50 of the item COCC(=O)N[C@@H](Cc1ccc(F)c(-c2cscn2)c1)[C@H](O)CN[C@H]1CC2(CCC2)Oc2ncc(CC(C)(C)C)cc21 [compound 683] in your answer.
**Result** 8.05

**Query** Let me know recorded pIC50 for CC(=O)N[C@@H](Cc1ccc(F)c(-n2ccnc2)c1)[C@H](O)CN[C@H]1CC2(CCC2)Oc2ncc(CC(C)(C)C)cc21 [Example 426] , thanks.
**Result** 7.51

**Query** Check the records and state pIC50 for COCC(=O)N[C@@H](Cc1cc(F)cc(-c2ncc(C)s2)c1)[C@H](O)CN[C@H]1CC2(CCC2)Oc2ncc(CC(C)C)cc21 [compound 732]
**Result** 7.74

**Query** Recall and state the measured pIC50 for CO[C@H](C)C(=O)N[C@@H](Cc1cc(F)cc(F)c1)[C@H](O)CN[C@H]1CC2(CCC2)Oc2c1cc(C1CC1)cc2-n1ccnc1 [compound 707] .
**Result** 6.94

**Query** Answer with the recorded pIC50 of Cc1ccccc1CN1CCO[C@@H](C(=O)N[C@@H](Cc2ccc(F)cc2)[C@H](O)CN[C@H]2CC3(CCC3)Oc3ncc(CC(C)(C)C)cc32)C1 [compound 692] only.
**Result** 7.89

**Query** Quick one: give measured pIC50 for CO[C@H](C)C(=O)N[C@@H](Cc1cc(F)cc(F)c1)[C@H](O)CN[C@H]1CC2(CCC2)Oc2c1cc(CC(C)C)nc2-c1cncn1C [Example 710]
**Result** 7.59

**Query** Return reported pIC50. Input compound: C#Cc1cc2c(c(-n3ccnc3)c1)OC1(CCC1)C[C@@H]2NC[C@@H](O)[C@H](Cc1cc(F)cc(F)c1)NC(=O)COC [compound 689]
**Result** 7.42

**Query** State, in one line, measured pIC50 of COCC(=O)N[C@@H](Cc1ccc(F)c(-c2cncs2)c1)[C@H](O)CN[C@H]1CC2(CCC2)Oc2ncc(CC(C)(C)C)cc21 [compound 684]
**Result** 8.30

**Query** Name the recorded pIC50 of the compound listed here: CC(=O)N[C@@H](Cc1cccc(-c2ncc[nH]2)c1)[C@H](O)CN[C@H]1CC2(CCC2)Oc2ncc(CC(C)(C)C)cc21 [Example 429]
**Result** 5.44

**Query** Output pIC50 of CO[C@H](C)C(=O)N[C@@H](Cc1cc(F)cc(F)c1)[C@H](O)CN[C@H]1CC2(CCC2)Oc2c1cc(CC(C)C)nc2Cl [compound 686]
**Result** 8.52

**Query** Give a short answer stating reported pIC50 for Cc1cccc(CN2CCO[C@@H](C(=O)N[C@@H](Cc3ccc(F)cc3)[C@H](O)CN[C@H]3CC4(CCC4)Oc4ncc(CC(C)(C)C)cc43)C2)c1 [compound 685] .
**Result** 7.89

**Query** Return the recorded pIC50 value; entry: Cc1ccccc1CN1CCO[C@H](C(=O)N[C@@H](Cc2ccc(F)cc2)[C@H](O)CN[C@H]2CC3(CCC3)Oc3ncc(CC(C)(C)C)cc32)C1 [compound 697]
**Result** 7.06

**Query** Identify measured pIC50 associated with COCC(=O)N[C@@H](Cc1ccc(F)c(F)c1)[C@H](O)CN[C@H]1CC(C)(C)Oc2ncc(CC(C)(C)C)cc21 [compound 676]
**Result** 8.00

**Query** Let me know recorded pIC50 for CO[C@H](C)C(=O)N[C@@H](Cc1ccc2c(c1)OCO2)[C@H](O)CN[C@H]1CC2(CCC2)Oc2c1cc(CC(C)C)nc2-c1ccncc1 [compound 670] , thanks.
**Result** 7.22

**Query** Look up pIC50 of CC(=O)N[C@@H](Cc1ccc(-c2nccs2)cc1)[C@H](O)CN[C@H]1CC2(CCC2)Oc2ncc(CC(C)(C)C)cc21 [Example 677] and report it.
**Result** 7.82

**Query** Identify pIC50 associated with the compound COCC(=O)N[C@@H](Cc1cc(F)cc(F)c1)[C@H](O)CN[C@H]1CC2(CCC2)Oc2c1cc(C1CC1)cc2-n1ccnc1 [compound 706]
**Result** 7.21

**Query** Answer with the recorded pIC50 for the compound listed here: COC(OC)C(=O)N[C@@H](Cc1ccc2c(c1)OCO2)[C@H](O)CN[C@H]1CC2(CCC2)Oc2ncc(CC(C)C)cc21 [compound 754]
**Result** 7.43

**Query** Identify pIC50 associated with the compound COCC(=O)N[C@@H](Cc1ccc(F)c(-c2nccs2)c1)[C@H](O)CN[C@H]1CC2(CCC2)Oc2ncc(CC(C)C)cc21 [compound 727]
**Result** 7.96

**Query** Answer with reported pIC50 of CO[C@H](C)C(=O)N[C@@H](Cc1ccc(F)c(F)c1)[C@H](O)CN[C@H]1CC(C)(C)Oc2ncc(CC(C)(C)C)cc21 [compound 675]
**Result** 8.05

**Query** # return recorded pIC50 for entry CO[C@H](C)C(=O)N[C@@H](Cc1ccc2c(c1)OCO2)[C@H](O)CN[C@H]1CC(C)(C)Oc2ncc(CC(C)(C)C)cc21 [compound 674]
**Result** 7.48

**Query** Return pIC50 (reported value) for this compound: COCC(=O)N[C@@H](Cc1cc(F)cc(F)c1)[C@H](O)CN[C@H]1CC(C)(C)Oc2c1cc(Br)c1c2OCO1 [compound 746]
**Result** 6.56

**Query** Supply measured pIC50 of COCC(=O)N[C@@H](Cc1ccc(F)c(-c2ncc(C)s2)c1)[C@H](O)CN[C@H]1CC2(CCC2)Oc2ncc(CC(C)(C)C)cc21 [compound 729] in your reply.
**Result** 7.32

**Query** Give pIC50 for CC(=O)N[C@@H](Cc1ccc2c(c1)OCO2)[C@H](O)CN[C@H]1CC(C)(C)Oc2ncc(CC(C)(C)C)cc21 [compound 679]
**Result** 7.72

**Query** Find the measured pIC50 of CC(=O)N[C@@H](Cc1cc(F)cc(F)c1)[C@H](O)CN[C@H]1CC2(CCC2)Oc2c(-c3ccncc3)cc(CC(C)C)cc21 [Example 673] and report it.
**Result** 8.05

---

Target: CYP3A4 (CYP3A) (Homo sapiens, UniProt P08684);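 further: inhibition of CYP3A-mediated 1-hydroxymidazolam formation after 10 min incubation with NADPH, quantified by HPLC MS relative to metabolite produced without test compound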
Sequence (P08684 2-503): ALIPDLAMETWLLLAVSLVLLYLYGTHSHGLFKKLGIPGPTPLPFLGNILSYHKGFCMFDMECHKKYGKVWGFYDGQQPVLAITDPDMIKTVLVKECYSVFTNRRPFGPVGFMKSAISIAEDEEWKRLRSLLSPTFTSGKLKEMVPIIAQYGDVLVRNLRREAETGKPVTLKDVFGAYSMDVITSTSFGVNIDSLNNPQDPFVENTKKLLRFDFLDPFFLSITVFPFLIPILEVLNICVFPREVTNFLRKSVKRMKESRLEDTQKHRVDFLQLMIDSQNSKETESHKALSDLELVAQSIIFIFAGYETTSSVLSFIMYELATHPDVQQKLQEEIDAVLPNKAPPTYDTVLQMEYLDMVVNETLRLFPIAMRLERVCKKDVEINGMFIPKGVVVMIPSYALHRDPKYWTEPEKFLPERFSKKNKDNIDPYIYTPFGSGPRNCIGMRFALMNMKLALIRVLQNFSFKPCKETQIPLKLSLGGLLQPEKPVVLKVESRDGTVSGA
Assay: in vitro
Settings: microsomes, pH 7.4
readout label: pIC50
The quantity pIC50 is defined as the negative base-10 logarithm of the molar concentration.

**Query** Answer with the recorded pIC50 of `COCC(=O)N[C@@H](Cc1ccc(F)cc1)[C@H](O)CN[C@H]1CC2(CCC2)Oc2c(-c3cnc[nH]3)cc(CC(C)C)cc21` only.
**Result** 6.70

**Query** Give the reported value of pIC50 for this record: `CO[C@H](C)C(=O)N[C@@H](Cc1cc(F)cc(Cl)c1)[C@H](O)CN[C@H]1CC2(CCC2)Oc2cnc(CC(C)(C)F)cc21`
**Result** 6.40

**Query** Tell me its pIC50 given `CC(C)(C)Cc1cnc2c(c1)[C@@H](NC[C@@H](O)[C@H](Cc1ccc(F)cc1)NC(=O)[C@H]1CN(Cc3cscn3)CCO1)CC1(CCC1)O2` as the entry.
**Result** 6.70

---

Please go through the items and note down their RLM.
Experiment: Microsomal stability assay, rat liver microsomes;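 further: rat liver microsomes (0.25 mg/mL) with about 1 µM compound plus 1 mM NADPH, pH 7.4, 37 °C for 30 min, parent left measured by LC-MS/MS against 0 min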
Details: rat liver microsomes
Respond numerically; units are µL/min/mg and should not be typed.

**Query** Indicate its recorded RLM; the compound in question is CO[C@H](C)C(=O)N[C@@H](Cc1cccc(C#N)c1)[C@H](O)CN[C@H]1CC2(CCC2)Oc2c(-c3ccncc3)cc(CC(C)C)cc21 [compound 620]
**Result** 105

**Query** Specify measured RLM for CC(=O)N[C@@H](Cc1cc(F)cc(F)c1)[C@H](O)CN[C@H]1CC2(CCC2)Oc2ncc(C(F)(F)C(C)(C)C)cc21 [compound 627] .
**Result** 166

**Query** In one line, give reported RLM of the entry CC(=O)N[C@@H](Cc1cc(F)cc(F)c1)[C@H](O)CN[C@H]1CC2(CCC2)Oc2c1cc(CC(C)(C)C)nc2-c1ccncc1 [compound 584] .
**Result** 50

**Query** Given the compound CC(=O)N[C@@H](Cc1ccc(-c2nccs2)cc1)[C@H](O)CN[C@H]1CC2(CCC2)Oc2ncc(CC(C)(C)C)cc21 [Example 677] , write its reported RLM.
**Result** 52

**Query** Give RLM for the following compound: CO[C@H](C)C(=O)N[C@@H](Cc1cc(F)cc(F)c1)[C@H](O)CN[C@H]1CC2(CCC2)Oc2c1cc(CC(C)C)nc2-c1cncn1C [Example 710]
**Result** 39

**Query** State its RLM for this compound: CO[C@H](C)C(=O)N[C@@H](Cc1cc(F)cc(F)c1)[C@H](O)CN[C@H]1CC2(CCC2)Oc2c1cc(C1CC1)cc2-n1ccnc1 [compound 707]
**Result** 39

**Query** Give RLM for the following compound: COCC(=O)N[C@@H](Cc1cc(F)cc(F)c1)[C@H](O)CN[C@H]1CC2(CCC2)Oc2c1cc(CC(C)C)nc2Cl [compound 667]
**Result** 682

**Query** Please give measured RLM of the following entry: COCC(=O)N[C@@H](Cc1cccc(F)c1)[C@H](O)CN[C@H]1CC2(CCC2)Oc2c1cc([C@@H](O)C(C)(C)C)cc2-n1ccnc1 [compound 593]
**Result** 29

**Query** Please give measured RLM of the following entry: Cc1ccc(CN2CCO[C@@H](C(=O)N[C@@H](Cc3ccc(F)cc3)[C@H](O)CN[C@H]3CC4(CCC4)Oc4ncc(CC(C)(C)C)cc43)C2)cc1 [compound 709]
**Result** 375

**Query** Using known records, supply RLM for Cc1ccccc1CN1CCO[C@@H](C(=O)N[C@@H](Cc2ccc(F)cc2)[C@H](O)CN[C@H]2CC3(CCC3)Oc3ncc(CC(C)(C)C)cc32)C1 [compound 692]
**Result** 590

**Query** Read off the recorded RLM for COCC(=O)N[C@@H](Cc1cc(F)cc(F)c1)[C@H](O)CN[C@H]1CC2(CCC2)Oc2c1cc(CC(C)C)nc2-c1cncn1C [compound 715]
**Result** 34

**Query** Give RLM for the following compound: COCC(=O)N[C@@H](Cc1ccc(F)cc1)[C@H](O)CN[C@H]1CC2(CCC2)Oc2c1cc(CC(C)(C)C)nc2Nc1ccccc1 [compound 612]
**Result** 245
